Tested on: T47D
TEST: XTT cell proliferation assay (cytotoxicity)
Assay type: cell-based
CONDITION_LABEL: Homo sapiens; breast cancer cell line T47D
MEASUREMENT_TYPE: IC50 (µM)
Note: unit µM is implicit; provide only the numeric part.

Input: Fill in: IC50 of O=C1C=CC(O)(c2cc(=O)c3c(O)cc(O)cc3o2)C=C1 is ___
Output: 5.13

* * *

Tested on: HeLa
TEST: XTT cell proliferation assay (cytotoxicity)
Assay type: cell-based
CONDITION_LABEL: Homo sapiens; cervical cancer cell line HeLa
MEASUREMENT_TYPE: pIC50
The read-out pIC50 is expressed as -log10 of concentration in moles per litre.

Input: Fill in: pIC50 of O=C1C=CC(O)(c2cc(=O)c3c(O)cc(O)cc3o2)C=C1 [protoapigenone] is ___
Output: 5.44

* * *

TEST: XTT cell proliferation assay (cytotoxicity)
Assay type: cell-based
CONDITION_LABEL: HOSE 11-12 immortalized ovarian epithelial cells; immortalized human ovarian epithelial cells HOSE 11-12
MEASUREMENT_TYPE: IC50 (µM)
Note: unit µM is implicit; provide only the numeric part.

Input: Fill in: IC50 of O=C1C=CC(O)(c2cc(=O)c3c(O)cc(O)cc3o2)C=C1 [protoapigenone] is ___
Output: 10.1

* * *

TEST: Body weight, complete blood count and biochemical profile of LNCap-xenografted nude mice
Assay type: in vivo
CONDITION_LABEL: LNCap xenograft, low dose, 5 weeks
MEASUREMENT_TYPE: RBC

Input: Fill in: RBC of O=C1C=CC(O)(c2cc(=O)c3c(O)cc(O)cc3o2)C=C1 is ___
Output: 7.3 10^6/µL
